B1: STK38L (parent)
chain: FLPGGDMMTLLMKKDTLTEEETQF

Variants of: B1
Assay remarks: protein stability index of a GFP-peptide fusion (GPS, HEK-293T) (PSI 1-6); higher = more stable;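 note: lentivirally expressed fusions sorted by FACS into six bins by GFP to DsRed ratio, PSI derived from sequencing read proportions per bin multiplied by bin number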
Run conditions: c terminus: a fixed tail appended
Measurement type: protein stability index

mutant_label=M8A measurement_type="protein stability index" val=3.75
mutant_label=T16C measurement_type="protein stability index" val=2.21
mutant_label=T16L measurement_type="protein stability index" val=1.74
mutant_label=D15C measurement_type="protein stability index" val=2.16
mutant_label=P3K measurement_type="protein stability index" val=2.91
mutant_label=L10A measurement_type="protein stability index" val=3.73
mutant_label=F24E measurement_type="protein stability index" val=2.35
mutant_label=D15Y measurement_type="protein stability index" val=1.1
mutant_label=T9R measurement_type="protein stability index" val=1.69
mutant_label=P3L measurement_type="protein stability index" val=1.86
mutant_label=K14S measurement_type="protein stability index" val=2.69
mutant_label=K14G measurement_type="protein stability index" val=2.25
mutant_label=D6A measurement_type="protein stability index" val=1.7
mutant_label=F24S measurement_type="protein stability index" val=2.19
mutant_label=L10I measurement_type="protein stability index" val=2.64
mutant_label=M8Q measurement_type="protein stability index" val=3.35
mutant_label=F1Y measurement_type="protein stability index" val=2.33
mutant_label=F1S measurement_type="protein stability index" val=4.29
mutant_label=L2M measurement_type="protein stability index" val=2.33
mutant_label=F24Q measurement_type="protein stability index" val=2.58
mutant_label=T16F measurement_type="protein stability index" val=1.89
mutant_label=E20K measurement_type="protein stability index" val=1.75
mutant_label=T18I measurement_type="protein stability index" val=1.58
mutant_label=P3A measurement_type="protein stability index" val=1.66
mutant_label=D15S measurement_type="protein stability index" val=1.76
mutant_label=E21N measurement_type="protein stability index" val=1.84
mutant_label=K13H measurement_type="protein stability index" val=2.37
mutant_label=T22A measurement_type="protein stability index" val=2.53
mutant_label=T18R measurement_type="protein stability index" val=1.84
mutant_label=Q23V measurement_type="protein stability index" val=2.25
mutant_label=D6T measurement_type="protein stability index" val=1.82
mutant_label=L17K measurement_type="protein stability index" val=2.51
mutant_label=K13P measurement_type="protein stability index" val=2.24
mutant_label=T18C measurement_type="protein stability index" val=1.57
mutant_label=M8D measurement_type="protein stability index" val=4.8
mutant_label=D15G measurement_type="protein stability index" val=2.05
mutant_label=L11E measurement_type="protein stability index" val=4.25
mutant_label=T18M measurement_type="protein stability index" val=1.7
mutant_label=L17A measurement_type="protein stability index" val=2.95
mutant_label=F1I measurement_type="protein stability index" val=3.88
mutant_label=L17Q measurement_type="protein stability index" val=1.98
mutant_label=D6Q measurement_type="protein stability index" val=1.96
mutant_label=M12W measurement_type="protein stability index" val=1.95
mutant_label=K13N measurement_type="protein stability index" val=2.49
mutant_label=M8P measurement_type="protein stability index" val=3.82
mutant_label=E21D measurement_type="protein stability index" val=2.07
